This collection of values is drawn from PubChem BioAssay (EPA / NIEHS).

- ASSAYED SYSTEM: Peroxisome proliferator-activated receptor gamma (Homo sapiens) (UniProt P37231)
- Sequence (P37231 whole entry, looked up): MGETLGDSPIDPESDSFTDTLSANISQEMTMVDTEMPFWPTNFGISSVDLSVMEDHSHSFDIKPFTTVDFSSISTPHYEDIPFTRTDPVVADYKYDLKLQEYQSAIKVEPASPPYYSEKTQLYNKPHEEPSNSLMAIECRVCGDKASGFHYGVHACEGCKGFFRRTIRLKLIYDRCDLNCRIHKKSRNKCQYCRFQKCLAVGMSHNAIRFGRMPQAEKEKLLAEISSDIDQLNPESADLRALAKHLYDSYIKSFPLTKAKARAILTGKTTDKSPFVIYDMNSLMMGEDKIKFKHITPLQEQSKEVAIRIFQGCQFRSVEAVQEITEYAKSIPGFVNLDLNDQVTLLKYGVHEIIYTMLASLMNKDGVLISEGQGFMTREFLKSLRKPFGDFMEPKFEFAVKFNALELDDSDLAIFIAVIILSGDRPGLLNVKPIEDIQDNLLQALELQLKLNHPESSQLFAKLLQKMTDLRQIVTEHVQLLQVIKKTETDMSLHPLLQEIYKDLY
- PROTOCOL DETAILS: ATG_PPARg_TRANS: Attagene TRANS-FACTORIAL HepG2 Assay for human Peroxisome Proliferator-activated Receptor-gamma (PPARg) (AID 2283007)
Results filed as inconclusive are left out. Activity calls are given as the source filed them. The calls were made as follows: active = hit-call score of the fitted dose curve at least 0.9, where 1 is the maximum; inconclusive = response in the unintended direction; inactive = score below 0.9.
Outcome codes: Yes (active), No (inactive)

• CCOc1cccc(-n2cc(C(=O)N3CCN(c4cc(C(=O)O)c5ccccc5c4)CC3)nc2-c2ccc(C)cc2)c1 = Yes
• C=CC(=C)CCC=C(C)C = Yes
• Cc1c(-c2cccnc2)c2ccccc2n1CCCCC(=O)O = Yes
• Cn1cnc([N+](=O)[O-])c1Sc1ncnc2nc[nH]c12 = Yes
• CCOC(=O)c1ccc(C2CCC(NC[C@H](O)COc3ccc(O)c(NS(C)(=O)=O)c3)CC2)cc1 (some centres not stated) = No
• O=C(CCCCCCCCc1cccnc1)N1CCC(C=C(c2ccccc2)c2ccccc2)CC1 = Yes
• CC(C)CCO = No
• Cc1ccc(S(=O)(=O)O)cc1C = No
• CCOC(=O)COc1ccc2c(c1)CC(NCC(O)c1cccc(Cl)c1)CC2 (configuration not stated) = Yes
• CCCCCCCCO = No
• COc1ccc2sc(C(=O)Nc3nnn[nH]3)c(OC(C)C)c2c1 = Yes
• CC[C@H]1CC[C@H](NCc2cc3c(cc2OC)[C@H]2C[C@H]2C(=O)N3C)[C@H](c2ccccc2)N1 = No

---

- Read-out: Cellular tumor antigen p53 (Homo sapiens)
- PROTOCOL DETAILS: LTEA_HepaRG_TP53: Life Technologies and Expression Analysis (LTEA) Assay for Tumor Protein P53 (TP53) using HepaRG (AID 2283537)
- RUN PARAMETERS: mRNA level, 48 h; actives raise or lower the signal
Activity calls are given as the source filed them. The calls were made as follows: active = hit-call score of the fitted dose curve at least 0.9, where 1 is the maximum; inactive = score below 0.9.
Outcome codes: active, inactive

* O=c1n(CC2CO2)c(=O)n(CC2CO2)c(=O)n1CC1CO1 (stereo unspecified) | active
* CCCCCCCCO | inactive
* CC[C@H]1CC[C@H](NCc2cc3c(cc2OC)[C@H]2C[C@H]2C(=O)N3C)[C@H](c2ccccc2)N1 | inactive
* Cc1ccc(O)cc1 | inactive
* Cn1cnc([N+](=O)[O-])c1Sc1ncnc2nc[nH]c12 | inactive
* O=C(CCCCCCCCc1cccnc1)N1CCC(C=C(c2ccccc2)c2ccccc2)CC1 | active
* C1N2CN3CN1CN(C2)C3 | inactive
* NC(=O)NO | inactive
* Nc1nc2ncc(CNc3ccc(C(=O)N[C@@H](CCC(=O)O)C(=O)O)cc3)nc2c(=O)[nH]1 | inactive
* CC(C)CC(C)(O)C#CC(C)(O)CC(C)C (stereo unspecified) | inactive
* CCNc1ccccc1 | inactive
* CC(C)CCO | inactive
* CC[C@H](C)C(=O)O[C@H]1C[C@@H](C)C=C2C=C[C@H](C)[C@H](CC[C@@H]3C[C@@H](O)CC(=O)O3)[C@H]21 | inactive
* COCCOc1cc2cc(C(=O)NC3CCN(C(C)C)CC3)n(CC(=O)Nc3ccc(Cl)cn3)c2cn1 | inactive
* Fc1ccccc1[C@@H](F)COC1CCC(Nc2ncnc3[nH]ncc23)CC1 (stereo partly specified) | inactive
* O=C1CCCCCN1 | inactive
* CC(O)CN(CCN(CC(C)O)CC(C)O)CC(C)O (stereo unspecified) | inactive
* CCCCCCCCCCCCc1ccccc1 | inactive
* O=C(O)CC(O)C(=O)O (stereo unspecified) | inactive
* COc1ccc2sc(C(=O)Nc3nnn[nH]3)c(OC(C)C)c2c1 | active
* CCCCC(CC)COC(=O)CCCCCCCCC(=O)OCC(CC)CCCC (stereo unspecified) | inactive
* C=CCCCCCCCCC(=O)O | inactive
* CCCN(C1CCN(C(=O)C2CCNCC2)CC1)[C@@H]1CCc2ccc(OC)cc2C1 | inactive
* CCCCCCCCCCCCCCCO | inactive
* O=C(O)c1cc(N=Nc2ccc(S(=O)(=O)Nc3ccccn3)cc2)ccc1O | inactive
* CN(C)c1ccc(N=NS(=O)(=O)O)cc1 | inactive

---

- Read-out: Urokinase-type plasminogen activator receptor (uPAR), PLAUR (gene 5329)
- PROTOCOL DETAILS: BSK_4H_uPAR: BioMAP Diversity Plus: 4H Assay for Urokinase-type plasminogen activator receptor (uPAR) Biomarker Activity (AID 2283030)
- RUN PARAMETERS: primary human endothelial cells (HUVEC); actives raise or lower the signal
Active and inactive are the calls of the source. How the source made its calls: active means hit-call score of the fitted dose curve at least 0.9, where 1 is the maximum; inactive means score below 0.9.
Outcome codes: TRUE (active), FALSE (inactive)

* O=C1CCCCCN1 | FALSE
* O=C1CCC(N2C(=O)c3ccccc3C2=O)C(=O)N1 (stereo not drawn) | FALSE
* O=C(O)c1cccc(N(Cc2cccnc2)c2ccc(OC(F)F)c(OC(F)F)c2)c1 | FALSE
* CCCC(=O)OCC | FALSE
* Nc1cccc(N)c1 | FALSE
* O=C(NS(=O)(=O)/C=C/c1ccccc1)c1ccc(F)cc1Cl | FALSE
* Cc1ccc(N)cc1O | FALSE
* CCc1cc(SCc2sc(-c3ccc(C(F)(F)F)cc3)nc2CN2CCN(c3ccc(OC)cc3)CC2)ccc1OCC(=O)O | TRUE
* O=C(O)c1cc(N=Nc2ccc(S(=O)(=O)Nc3ccccn3)cc2)ccc1O | FALSE
* CCCCCCc1ccc(O)cc1O | TRUE
* COC(=O)c1c(Cl)c(Cl)c(C(=O)OC)c(Cl)c1Cl | FALSE
* CC(C)=CCCC(C)=CC=O | FALSE
* Cc1ccc(O)cc1 | FALSE

---

- Read-out: Early growth response protein 1 (EGR1) transcription factor, EGR1 (gene 1958)
- PROTOCOL DETAILS: LTEA_HepaRG_EGR1: Life Technologies and Expression Analysis (LTEA) Assay for Early growth response protein 1 (EGR1) transcription factor using HepaRG (AID 2283490)
- RUN PARAMETERS: mRNA level, 48 h; actives raise or lower the signal
Active and inactive are the calls of the source. The calls were made as follows: active = hit-call score of the fitted dose curve at least 0.9, where 1 is the maximum; inactive = score below 0.9.
MEASUREMENT TYPE: outcome

- O=C1OC(=O)C2C3C=CC(C3)C12 (stereo not drawn): inactive
- Nc1ccc(Nc2ccccc2)cc1: inactive
- C[C@](N)(Cc1ccc(O)c(O)c1)C(=O)O: inactive

---

- ASSAYED SYSTEM: Hepatocyte nuclear factor 6 (Homo sapiens)
- PROTOCOL DETAILS: ATG_HNF6_CIS: Attagene CIS-FACTORIAL HepG2 Assay for human Hepatocyte Nuclear Factor 6 (HNF6) (AID 2282952)
- RUN PARAMETERS: HepG2 Attagene cis-factorial HNF6 reporter transcription; actives raise or lower the signal
- Protocol: ATG_CIS is a cell-based, multiplexed-readout assay that uses HepG2, a human liver cell line, with measurements taken at 24 hours after chemical dosing in a 24-well plate.ATG_HNF6_CIS is one of 52 assay component(s) measured or calculated from the ATG_CIS assay. […] This assay endpoint, ATG_HNF6_CIS, was analyzed with bidirectional fitting relative to DMSO as the negative control and baseline of activity. […]
The source made the active and inactive calls. The calls were made as follows: active = hit-call score of the fitted dose curve at least 0.9, where 1 is the maximum; inactive = score below 0.9.
Outcome codes: T = active, F = inactive

* CC(C)(O)c1coc(S(=O)(=O)NC(=O)Nc2c3c(cc4c2CCC4)CCC3)c1 | F
* Oc1ccc2c(c1)-c1ccccc1C2 | F
* CCc1cc(SCc2sc(-c3ccc(C(F)(F)F)cc3)nc2CN2CCN(c3ccc(OC)cc3)CC2)ccc1OCC(=O)O | F
* CNCc1ccc(NC(=O)c2c[nH]c3c2C(=O)CCC3)cc1 | F
* Cc1[nH]cnc1C[C@H]1CCc2c(C)c3ccccc3n2C1=O | F
* CCCCC(CC)COC(=O)c1ccc(C(=O)OCC(CC)CCCC)cc1 (configuration not stated) | F
* CC(C)=CCCC(C)=CC=O | F
* COc1cccc(-c2ccc(/C=C\CN3CCCCCC3)cc2Cl)c1 | F
* CC(C)=CCC/C(C)=C/CO | F
* Cc1ccc(S(=O)(=O)O)cc1C | F
* C1=CCCC=CCCC=CCC1 | F
* O=C(OC[C@H]1O[C@@H](OC(=O)c2cc(O)c(O)c(OC(=O)c3cc(O)c(O)c(O)c3)c2)[C@H](OC(=O)c2cc(O)c(O)c(OC(=O)c3cc(O)c(O)c(O)c3)c2)[C@@H](OC(=O)c2cc(O)c(O)c(OC(=O)c3cc(O)c(O)c(O)c3)c2)[C@@H]1OC(=O)c1cc(O)c(O)c(OC(=O)c2cc(O)c(O)c(O)c2)c1)c1cc(O)c(O)c(OC(=O)c2cc(O)c(O)c(O)c2)c1 | F
* CN(C)c1ccc(N=NS(=O)(=O)O)cc1 | F
* CC/C(=C\C(=N/O)C(N)=O)C(C)[N+](=O)[O-] (configuration not stated) | F
* CC(C)CCCCCCCOC(=O)CCCCC(=O)OCCCCCCCC(C)C | F
* COc1ccc(-n2nc(C(F)F)cc2-c2ccc(S(C)=O)cc2)cc1 (configuration not stated) | F
* CCOc1cccc(-n2cc(C(=O)N3CCN(c4cc(C(=O)O)c5ccccc5c4)CC3)nc2-c2ccc(C)cc2)c1 | F
* Cc1ccc(C)c(O)c1 | F
* CCC(C)(C)C(=O)O[C@H]1C[C@@H](C)C=C2C=C[C@H](C)[C@H](CC[C@@H]3C[C@@H](O)CC(=O)O3)[C@H]21 | F
* O=P(OC(CCl)CCl)(OC(CCl)CCl)OC(CCl)CCl | T
* COC(=O)CC(=O)OC | F
* CC(C)CC(C)(O)C#CC(C)(O)CC(C)C (configuration not stated) | F
